The values you see were collected from the supplement of paper PMC9897528.

test system: Scedosporium aurantiacum CBS 136046; test: growth inhibition relative to DMSO control (OD600); higher = more antifungal activity, active = 80 or more; extreme values may be limits of the assay; details: 5 µM; 72 h; 37 °C;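 also: conidia screened in RPMI 1640 medium under 5% CO2, growth read by spectrophotometer, medium with 0.5% DMSO serving as the untreated reference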
observationType: growth inhibition (%)

compound: O=C(O)/C=C/C=C/c1cccc(Oc2cc(Cl)cc(Cl)c2)c1
observedValue: 13.8
//
compound: COc1cc(Cc2cnc(N)nc2N)c2c(c1OC)OC(C1CC1)C=C2 (stereo not given)
observedValue: 2.07
//
compound: O=C1[C@H](CC[C@H](O)c2ccc(F)cc2)[C@@H](c2ccc(O)cc2)N1c1ccc(F)cc1
observedValue: 13.9
//
compound: Cc1ccccc1NC(=O)Nc1cccc([N+](=O)[O-])c1
observedValue: 12.4
//
compound: CN(C)CC(=O)Nc1ccc2[nH]c(=O)c3ccccc3c2c1
observedValue: 6.77
//
compound: CCNC(=O)Nc1cc2c(-c3ccnc(C)c3)ccc(CNC(=O)OC)c2cn1
observedValue: 13.3
//
compound: COc1c(NC(=O)[C@H]2CC[C@@H](COc3ccc([N+](=O)[O-])cc3)CC2)c(F)cc2c(=O)c(C(=O)O)cn(C3CC3)c12
observedValue: 15.5
//
compound: CC(C)C(=O)N[C@H]1[C@H]([C@H](O)[C@H](O)CO)OC(C(=O)O)=C[C@@H]1N=[N+]=[N-]
observedValue: 9.45
//
compound: c1cnc(NCc2ccc(CNc3ncccn3)cc2)nc1
observedValue: 10.1
//
compound: CCc1oc2ccccc2c1C(=O)c1ccc(O)cc1
observedValue: 35.1
//
compound: O=C(Nc1ccc(-c2ccccc2)cc1)C1=C(O)C(Cc2ccccc2)OC1=O (stereo not given)
observedValue: 45.3
//
compound: CC[C@@]1(O)C(=O)OCc2c1cc1n(c2=O)Cc2cc3c([N+](=O)[O-])cccc3nc2-1
observedValue: 22.2
//
compound: Oc1ccc(NCc2ccccc2OCc2ccccc2)cc1
observedValue: 10
//
compound: CSC[C@H]1CN(Cc2c[nH]c3c(N)ncnc23)C[C@@H]1O
observedValue: 10.5
//
compound: CCOC(=O)/C=C/[C@H](C[C@@H]1CCNC1=O)NC(=O)[C@@H](CC(=O)[C@@H](NC(=O)c1cc(C)on1)C(C)C)Cc1ccc(F)cc1
observedValue: 1.27
//
compound: CC(C)/N=c1\cc2n(-c3ccc(Cl)cc3)c3ccccc3nc-2cc1Nc1ccc(Cl)cc1
observedValue: 24.6
//
compound: CNC(=O)C1O[C@@H](n2cnc3c(NCc4cccc(I)c4)nc(Cl)nc32)[C@H](O)[C@@H]1O (stereo not given in full)
observedValue: 3.52
//
compound: O=S(=O)(Nc1cccc2cccnc12)c1ccccc1
observedValue: 13.6
//
compound: CNCC(=O)OCc1cccnc1N(C)C(=O)OC(C)[n+]1cnn(C[C@](O)(c2cc(F)ccc2F)[C@@H](C)c2nc(-c3ccc(C#N)cc3)cs2)c1 (stereo not given in full)
observedValue: 59.5
//
compound: c1ccc(Cn2c(-c3ccccn3)nc3ccccc32)cc1
observedValue: 14.3
